# GI50 listing for each entry below
Test system: MDA-MB-231 breast
Test: NCI tumour cell line growth inhibition, 48 h
endpointLabel: GI50

* CCC#CC[C@H](O)C/C=C1/C(=O)C=C[C@@H]1C/C=C\CCCC(=O)OC | 1950 nM
* O=C1OCC(c2ccc(O)cc2)=C1c1cc(O)c(O)c(O)c1 | > 100000 nM
* O=P(O)(O)OCC1OC(n2cnc3c(NCc4ccco4)ncnc32)C(O)C1O (stereo not given) | 479 nM
* O=C1Nc2ccccc2/C1=C\c1cccc(/C=C2/C(=O)Nc3ccccc32)n1 | 1250 nM
* COc1cc2c3c(n(CCCCNC(=O)OC(C)(C)C)c(=O)c2cc1OC)-c1cc2c(cc1C3=O)OCO2 | > 100000 nM

* * *

Below, each entry is listed alongside its reported TGI.
Tested on: ACHN renal
Assay: NCI tumour cell line growth inhibition, 48 h
endpointLabel: TGI

* CCCCCCCCCCCC[N+](C)(C)Cc1ccccc1 | 20.4 µM
* CCCCC[C@H]1CC=C2C(=O)C=C[C@@H]2CC=CCCCC(=O)O[C@@H](CCCCC)CC=C2C(=O)C=C[C@@H]2CC=CCCCC(=O)O[C@@H](CCCCC)CC=C2C(=O)C=C[C@@H]2CC=CCCCC(=O)O1 | > 8.75 µM
* O=c1cc(-c2ccccc2)oc2ccc(OC/C(=N/O)c3ccc(F)cc3)cc12 | > 50 µM
* Cc1ccc(S(=O)(=O)/N=C2/N(C)CCCS2(=O)=O)cc1 | > 100 µM
* COc1cccc(-n2ncc3c(N/N=C/c4ccc(C)cc4)ncnc32)c1 | > 25 µM
* CC(=O)NNc1nc(C)c(C(/C=C/c2ccc([N+](=O)[O-])cc2)=N/NC(N)=O)s1 | > 100 µM
* O=C1C(C(c2ccc([N+](=O)[O-])cc2)N2CCOCC2)=C(O)C(c2ccccc2)N1c1ccccc1 (centres undefined) | > 10 µM
* Cc1ccc(NC(=O)C(=O)C(C(=O)c2ccc3ccccc3c2)C2OC(=O)c3ccccc32)c(C)c1 (centres undefined) | 60.4 µM
* CCCCC(=C=C(C)CO)C1CCCN1C(=O)OC(C)(C)C (centres undefined) | 68.2 µM
* COc1cccc2c1C(=O)c1c(O)c3c(c(O)c1C2=O)C[C@@](O)(C(C)=O)C[C@@H]3OC1CC([N+]([O-])(Cc2ccccc2)Cc2ccccc2)C(O)C(C)O1 (some centres undefined) | 2.73 µM
* CN(C)c1ccc(C(=N)c2ccc(N(C)C)cc2)cc1 | > 100 µM
* C/C(=N\NC(=O)CC#N)C(CN1CCCCC1)C(c1ccccc1)c1c(O)c2ccccc2oc1=O (centres undefined) | > 100 µM
* N/C(=N\S(=O)(=O)c1ccc(-c2ccccn2)s1)Nc1ccc(Cl)cc1 | 33.6 µM
* COc1cc(OC)c(/C=C/C(=O)c2ccc(Nc3ncnc4ccccc34)cc2)c(OC)c1 | 17.7 µM
* O=C(OCC1CCCN2CCCCC12)c1cccnc1 (centres undefined) | > 100 µM
* Nc1ncnc2c1ncn2CCCC(c1ccccc1)P(=O)(O)O (centres undefined) | > 100 µM
* CCNC(=O)NNc1ncnc2c1c(-c1ccc(Cl)cc1)cn2-c1ccc(C)cc1 | 41.9 µM
* CCCN(CCC)CCc1cc(C(C)=O)n(S(=O)(=O)c2ccc(C)cc2)c1 | > 100 µM
* Cc1cc(C)nc(NS(=O)(=O)c2ccc(Nc3c4ccccc4nc4c(C(=O)Nc5ccc(S(=O)(=O)Nc6cc(C)on6)cc5)ccc(Cl)c34)cc2)n1 | > 100 µM

* * *

Test system: HL-60(TB) leukemia
Test: NCI tumour cell line growth inhibition, 48 h; in the data active = GI50 below about 0.43 µM; inactive = the rest
Labels: active, inactive

- CN(C)C[C@H]1CCn2c(c(C3=C(c4cn(C)c5ccccc45)C(=O)NC3=O)c3ccccc32)C1: inactive
- CC(=O)O[C@@]12CO[C@@H]1C[C@H](O)[C@@]1(C)C(=O)[C@H](O)C3=C(C)[C@@H](OC(=O)[C@H](O)[C@@H](NC(=O)OC(C)(C)C)c4ccccc4)C[C@@](O)([C@@H](OC(=O)c4ccccc4)C12)C3(C)C (some centres undefined): active
- CCCCCCCCCCCC[N+](C)(C)Cc1ccccc1: inactive
- COc1cccc(Sc2ccc([N+](=O)[O-])c3no[n+]([O-])c23)c1: inactive

* * *

Tested on: U251 CNS
Classes used: active, inactive

• C[C@]12CC[C@@H]3c4ccc(O)cc4CC[C@H]3[C@@H]1CC[C@@H]2NS(=O)(=O)c1cccc(Cl)c1 = inactive
• O=C1NCN(c2ccccc2)C12CCN(CCCC(c1ccc(F)cc1)c1ccc(F)cc1)CC2 = inactive
• O=C1/C(=C/c2ccc(F)c(F)c2)CN(C(=O)C(Cl)Cl)C/C1=C\c1ccc(F)c(F)c1 = active
• C=C1C(=O)O[C@H]2[C@H]1CC/C(Cn1cc(Cc3c[nH]c4ccccc34)nn1)=C\CC[C@@]1(C)O[C@@H]21 = inactive
• C=CCNc1nc(O)c(/C=C2\C=Nc3ncccc32)s1 = inactive
• CCC[CH2][Sn]([CH2]CCC)([CH2]CCC)[O]C(=O)C(OC(C)=O)c1ccccc1 (stereo unspecified) = active
• CC(C)=O.O=C([O-])C(F)(F)F.O=C([O-])C(F)(F)F.O=C([O-])C(F)(F)F.O=C([O-])C(F)(F)F.[Rh+2].[Rh+2] = inactive
• c1cc(CN2CCCNCCNCCCNCC2)ccc1CN1CCCNCCNCCCNCC1 = inactive
• Cc1ccc(-c2c(C#N)[n+](=O)c3cc(F)c(F)cc3n2[O-])cc1 = inactive
• COc1cc(OC)cc(-c2nc3sccn3c2/C=N/N=C(N)N)c1 = inactive
• COC12C=C/C(=C(/C(=O)OCCSc3ccnn3C)C(=O)CCCCCCCCC3(OC)C=C/C(=C(/C(=O)OCCSc4ccnn4C)C(=O)CCCCCCCC1)O3)O2 = inactive

* * *

System: HOP-92 NSCLC
Assay: NCI tumour cell line growth inhibition, 48 h
# TGI per entry
endpointLabel: TGI

- C[C@]12C(=O)C=CCC1=CC[C@@H]1[C@@H]2[C@H]2CC3(O)C(=O)O[C@@]4(C)[C@H]5C[C@@]6(C)[C@@H]7[C@@]2(O)[C@]1(OC[C@H]6C(=O)O5)O[C@]734 (some centres undefined): > 100 µM
- O=C(Nc1ccc2ncnc(Nc3ccc(Oc4cccc(F)c4)c(Cl)c3)c2c1)c1ccc(CN2CCOCC2)cc1: 15.4 µM
- COc1ccc2c3c(c(C(=O)O)oc13)CCC2: > 100 µM
- O=C(O)C(Br)C(Br)C(=O)O (centres undefined): > 100 µM
- CC(C(=O)NCCNC(=O)CCC(=O)N(C)O)C(=O)NCCNC(=O)CCC(=O)N(C)O: > 100 µM
- Cc1nc(N)sc1C(=O)Nc1ncn[nH]1: > 100 µM
- COc1cc(-c2nn(-c3cccc(NC(=O)NCCNS(=O)(=O)c4ccc(Cl)cc4)c3)cc2-c2ccncc2)ccc1Cl: 5.45 µM
- Cc1ccc(S(=O)(=O)/N=C2/N(C)CCCS2(=O)=O)cc1: > 100 µM
- Cc1cc2c(cc1C)[n+](=O)c(C(=O)/C=C/c1ccc3c(c1)OCO3)c(C)n2[O-]: 69.1 µM

* * *

Test system: HL-60(TB) leukemia
Assay: NCI tumour cell line growth inhibition, 48 h
endpointLabel: TGI (µM)

* CCCCCCCCCCCC[N+](C)(C)Cc1ccccc1 | 2.85
* C/C=C/c1cc2c(c(=O)o1)C(=O)[C@@H](O)[C@H](C)O2 | 54.4
* CCn1c(-c2c(Cl)cc(O)cc2Cl)cc2c(Cl)cc(O)cc21 | 26.2
* N#C/C(=C/n1c(=S)[nH]c2ccccc21)C(N)=O | 30.4
* O=C(O)CNc1ccc(Cl)c(Cl)c1 | 78.5
* C=CCNc1nc(O)c(/C=C2\C=Nc3ncccc32)s1 | 5.27

* * *

System: ACHN renal
Experiment: NCI tumour cell line growth inhibition, 48 h; in the data active = GI50 below about 0.43 µM; inactive = the rest
Outcome codes: true (1) for active, false (0) for inactive

* COc1cc(-c2nn(-c3cccc(NC(=O)NCCNS(=O)(=O)c4ccc(Cl)cc4)c3)cc2-c2ccncc2)ccc1Cl | false (0)
* Cc1ccc(-c2c(C#N)[n+](=O)c3cc(F)c(F)cc3n2[O-])cc1 | false (0)
* Cn1cc(-c2nc(-c3c[nH]c4ccncc34)cs2)c2ccccc21 | false (0)
* CCC[CH2][Sn]([CH2]CCC)([CH2]CCC)[O]C(=O)C(OC(C)=O)c1ccccc1 (stereo not given) | true (1)
* CC/C=C\C[C@H](O)C/C=C1/C(=O)C=C[C@@H]1C/C=C\CCCC(=O)OC(C)C | false (0)

* * *

Tested on: SN12C renal
Assay: NCI tumour cell line growth inhibition, 48 h
endpointLabel: GI50

* CC/C=C\C[C@H](O)C/C=C1/C(=O)C=C[C@@H]1C/C=C\CCCC(=O)OC(C)C | 2420 nM
* CCCCC[C@H]1CC=C2C(=O)C=C[C@@H]2CC=CCCCC(=O)O[C@@H](CCCCC)CC=C2C(=O)C=C[C@@H]2CC=CCCCC(=O)O[C@@H](CCCCC)CC=C2C(=O)C=C[C@@H]2CC=CCCCC(=O)O1 | 277 nM
* COc1cc(OC)c(/C=C/C(=O)c2ccc(Nc3ncnc4ccccc34)cc2)c(OC)c1 | 1660 nM
* CN(C)C[C@H]1CCn2c(c(C3=C(c4cn(C)c5ccccc45)C(=O)NC3=O)c3ccccc32)C1 | 4390 nM
* O=C1/C(=C/c2ccc(F)c(F)c2)CN(C(=O)C(Cl)Cl)C/C1=C\c1ccc(F)c(F)c1 | 112 nM
* c1ccc2cc(Cn3cc[n+](Cc4ccc5ccccc5c4)c3)ccc2c1 | 846 nM
* COc1cccc(Sc2ccc([N+](=O)[O-])c3no[n+]([O-])c23)c1 | 16900 nM
* C=CCNc1nc(O)c(/C=C2\C=Nc3ncccc32)s1 | 2100 nM
